Known Plateau Ratio of a selection of binders
- TARGET: T1, LINGO-Fc (human, UniProt Q96FE5 40-538, limits assumed)
- T1 construct: not shown: Fc part
- T1 sequence: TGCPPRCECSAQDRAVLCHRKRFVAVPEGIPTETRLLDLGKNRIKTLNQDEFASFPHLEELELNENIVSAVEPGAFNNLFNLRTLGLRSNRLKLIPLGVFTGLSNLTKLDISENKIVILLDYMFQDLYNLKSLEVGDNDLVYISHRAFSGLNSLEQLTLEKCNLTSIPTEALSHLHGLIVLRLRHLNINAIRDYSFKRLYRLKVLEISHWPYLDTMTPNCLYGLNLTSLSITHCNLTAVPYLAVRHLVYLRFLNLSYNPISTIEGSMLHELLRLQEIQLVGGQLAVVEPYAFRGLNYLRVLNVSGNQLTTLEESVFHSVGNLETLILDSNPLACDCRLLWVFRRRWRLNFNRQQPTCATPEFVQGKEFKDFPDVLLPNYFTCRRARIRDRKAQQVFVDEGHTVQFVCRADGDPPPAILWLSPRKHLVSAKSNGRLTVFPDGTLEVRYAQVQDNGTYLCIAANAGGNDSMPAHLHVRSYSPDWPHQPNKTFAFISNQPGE
- ASSAY NOTES: direct ELISA on LINGO-Fc; OD450 at saturation relative to Li33;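 note: binding to plate-coated LINGO-Fc read by OD450, with the value at maximal saturation divided by the corresponding Li33 value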

{"BINDER": "Li33 variant W104S (SEQ ID NO:157) (antibody, V domains shown, unchanged chain from WT Li33) VH: EVQLLESGGGLVQPGGSLRLSCAASGFTFSIYPMFWVRQAPGKGLEWVSWIGPSGGITKYADSVKGRFTISRDNSKNTLYLQMNSLRAEDTATYYCAREGHNDSYFDLWGRGTLVTVSS VL: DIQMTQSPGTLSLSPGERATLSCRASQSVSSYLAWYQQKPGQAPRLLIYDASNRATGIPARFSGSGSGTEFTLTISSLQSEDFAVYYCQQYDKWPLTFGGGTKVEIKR", "Plateau Ratio": "0.85 ratio"}
{"BINDER": "Li33 variant I57S (SEQ ID NO:183) (antibody, V domains shown, unchanged chain from WT Li33) VH: EVQLLESGGGLVQPGGSLRLSCAASGFTFSIYPMFWVRQAPGKGLEWVSWIGPSGGSTKYADSVKGRFTISRDNSKNTLYLQMNSLRAEDTATYYCAREGHNDWYFDLWGRGTLVTVSS VL: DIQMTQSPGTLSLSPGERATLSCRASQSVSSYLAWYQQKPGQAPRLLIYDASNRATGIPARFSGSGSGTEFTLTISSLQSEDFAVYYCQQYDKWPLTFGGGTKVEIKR", "Plateau Ratio": "0.96 ratio"}
{"BINDER": "Li33 variant I57P (SEQ ID NO:184) (antibody, V domains shown, unchanged chain from WT Li33) VH: EVQLLESGGGLVQPGGSLRLSCAASGFTFSIYPMFWVRQAPGKGLEWVSWIGPSGGPTKYADSVKGRFTISRDNSKNTLYLQMNSLRAEDTATYYCAREGHNDWYFDLWGRGTLVTVSS VL: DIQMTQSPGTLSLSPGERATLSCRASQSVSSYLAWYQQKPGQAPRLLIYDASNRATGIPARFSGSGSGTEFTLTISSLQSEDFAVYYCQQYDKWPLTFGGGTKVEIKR", "Plateau Ratio": "1.27 ratio"}
{"BINDER": "Li33 variant I57M (SEQ ID NO:160) (antibody, V domains shown, unchanged chain from WT Li33) VH: EVQLLESGGGLVQPGGSLRLSCAASGFTFSIYPMFWVRQAPGKGLEWVSWIGPSGGMTKYADSVKGRFTISRDNSKNTLYLQMNSLRAEDTATYYCAREGHNDWYFDLWGRGTLVTVSS VL: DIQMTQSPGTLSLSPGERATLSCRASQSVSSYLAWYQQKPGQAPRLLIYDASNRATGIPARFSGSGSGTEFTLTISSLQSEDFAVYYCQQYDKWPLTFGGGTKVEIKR", "Plateau Ratio": "1.09 ratio"}
{"BINDER": "Li33 variant I57F (SEQ ID NO:164) (antibody, V domains shown, unchanged chain from WT Li33) VH: EVQLLESGGGLVQPGGSLRLSCAASGFTFSIYPMFWVRQAPGKGLEWVSWIGPSGGFTKYADSVKGRFTISRDNSKNTLYLQMNSLRAEDTATYYCAREGHNDWYFDLWGRGTLVTVSS VL: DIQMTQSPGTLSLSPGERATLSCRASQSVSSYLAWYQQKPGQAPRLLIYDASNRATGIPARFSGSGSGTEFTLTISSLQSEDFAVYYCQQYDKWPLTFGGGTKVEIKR", "Plateau Ratio": "0.83 ratio"}
